Listed below: herbicidal activity on Matricaria inodora (visual rating vs untreated controls) values for each entry.
# System: Matricaria inodora
# experimentalDetails: Pre-emergence herbicidal action
# Format: in vivo
# runParameters: 320 g/ha, scored after about 3 weeks, 100% = plants have died, 0% = like control plants
observedProperty: herbicidal activity on Matricaria inodora (visual rating vs untreated controls)

> print(dat)
                                        mol  result
1  Cc1nn(C)c(-c2ccc(F)cc2Cl)c1C(=O)Nc1cccc(Cl)c1    100%
2  Cc1ccccc1NC(=O)c1c(C)nn(C)c1-c1ccc(F)cc1Cl    100%
3  Cc1nn(C)c(-c2ccc(F)cc2Cl)c1C(=O)Nc1ccc(F)nc1     90%
4  Cc1nn(C)c(-c2ccc(F)cc2Cl)c1C(=O)NC1CCCC1     90%
5  Cc1cccnc1NC(=O)c1c(C)nn(C)c1-c1ccc(F)cc1Cl    100%
